Tested on: MCF-7 human breast adenocarcinoma cells (hormone-dependent)
test-name: SRB antiproliferative assay, MCF-7
Type: cell-based
experimental-setup: MCF-7 cells, ligands with IC50 higher than 30 μM
Some molecules, each annotated with its measured (%) cells viability.
Entry rule: numbers only, all in %.

> print(dat)
        structure.notation  value.reported
1   Fc1ccc(-c2nnc(S)o2)cc1            90.7
2  S=c1[nH]nc(-c2ccccc2)o1            84.7
3     Fc1ccccc1-c1nnc(S)o1            95.7
4  Sc1nnc(-c2cccc(Cl)c2)o1            90.1

Inquiry: State recorded (%) cells viability with MCF-7 human breast adenocarcinoma cells (hormone-dependent), entry Sc1nnc(-c2ccccc2Cl)o1 , no comment.
Reply text: 80.3
